- Test system: Staphylococcus sp.
- Assay summary: In vitro antibacterial evaluation: minimum inhibitory concentration (MIC), broth dilution method
- Format: cell-based
- Condition notes: strain GC 4546
Mark each entry condition met if its MIC Staphylococcus haemolyticus (GC 4546) sits below 4 µg/mL, and condition not met for all others.

// known answers, use as guide
Cc1ccc(Oc2cccc(C3OCC4OC(OC5C(CO)OC(Oc6ccc(CC7NC(=O)C(C(C)c8ccccc8)NC(=O)CNC(=O)C(CO)NC(=O)C(C(O)C8CNC(=N)N8C8OC(CO)C(O)C(O)C8O)NC(=O)C(C(O)C8CNC(=N)N8)NC7=O)cc6I)C(O)C5O)C(O)C(O)C4O3)c2)cc1 (stereo not shown) [Example 197] ... condition not met
CC(c1ccccc1)C1NC(=O)CNC(=O)C(CO)NC(=O)C(C(O)C2CNC(=N)N2C2OC(CO)C(O)C(O)C2O)NC(=O)C(C(O)C2CNC(=N)N2)NC(=O)C(Cc2ccc(OC3OC(CO)C(OC4OC5COC6(CC7CCC6(C)C7(C)C)OC5C(O)C4O)C(O)C3O)cc2)NC1=O (stereo not shown) [Example 215] ... condition met
CC(c1ccccc1)C1NC(=O)CNC(=O)C(CO)NC(=O)C(C(O)C2CNC(=N)N2C2OC(CO)C(O)C(O)C2O)NC(=O)C(C(O)C2CNC(=N)N2)NC(=O)C(Cc2ccc(OC3OC(CO)C(OC4OC5COC(c6ccc(C(=O)c7ccc(I)cc7)cc6)OC5C(O)C4O)C(O)C3O)cc2)NC1=O (stereo not shown) [Example 186] ... condition met
CCCCCC1OCC2OC(OC3C(CO)OC(Oc4ccc(CC5NC(=O)C(C(C)c6ccccc6)NC(=O)CNC(=O)C(CO)NC(=O)C(C(O)C6CNC(=N)N6C6OC(CO)C(O)C(O)C6O)NC(=O)C(C(O)C6CNC(=N)N6)NC5=O)cc4)C(O)C3O)C(O)C(O)C2O1 (stereo not shown) [Example 108] ... condition met

--- query ---
## Input Confirm or reject: MIC Staphylococcus haemolyticus (GC 4546) of CC(c1ccccc1)C1NC(=O)CNC(=O)C(CO)NC(=O)C(C(O)C2CN(c3ncccn3)C(=N)N2C2OC(CO)C(O)C(O)C2O)NC(=O)C(C(O)C2CNC(=Nc3ncccn3)N2)NC(=O)C(Cc2ccc(OC3OC(CO)C(OC4OC5COC6(OC5C(O)C4O)C4CC5CC(C4)CC6C5)C(O)C3O)cc2)NC1=O (stereo not shown) [Example 228] lies strictly below 4 µg/mL
## Output condition not met

###

- Tested on: Escherichia coli
- Assay summary: In vitro antibacterial evaluation: minimum inhibitory concentration (MIC), broth dilution method
- Type: cell-based
- Condition notes: Escherichia coli (GC 4559); 18 hours at 35° C.
- Source text: […]
For each of the compounds below, state its MIC Escherichia coli (GC 4559).
Answers are plain numbers, in µg/mL.

Some solved cases for reference:
CC(c1ccccc1)C1NC(=O)CNC(=O)C(CO)NC(=O)C(CC2CNC(=N)N2C2OC(CO)C(O)C(O)C2O)NC(=O)C(CC2CNC(=N)N2)NC(=O)C(Cc2ccc(OC3OC(CO)C(OC4OC5COC(c6ccc(OCc7ccccc7)cc6)OC5C(O)C4O)C(O)C3O)cc2)NC1=O (centres unmarked) [Example 191] ... 64
CC(c1ccccc1)C1NC(=O)CNC(=O)C(CO)NC(=O)C(C(O)C2CNC(=N)N2C2OC(CO)C(O)C(O)C2O)NC(=O)C(C(O)C2CNC(=N)N2)NC(=O)C(Cc2ccc(OC3OC(CO)C(OC4OC5COC6(CCSCC6)OC5C(O)C4O)C(O)C3O)cc2)NC1=O (centres unmarked) [Example 217] ... 32
CC(c1ccccc1)C1NC(=O)CNC(=O)C(CO)NC(=O)C(C(O)C2CNC(=N)N2C2OC(CO)C(O)C(O)C2O)NC(=O)C(C(O)C2CNC(=N)N2)NC(=O)C(Cc2ccc(OC3OC(CO)C(OC4OC5COC(c6ccccc6)OC5C(O)C4O)C(O)C3O)c(I)c2)NC1=O (centres unmarked) [Example 196] ... 64
COc1ccc2cc(COCC3OC(OC4C(CO)OC(Oc5ccc(CC6NC(=O)C(C(C)c7ccccc7)NC(=O)CNC(=O)C(CO)NC(=O)C(CC7CNC(=N)N7C7OC(CO)C(O)C(O)C7O)NC(=O)C(CC7CNC(=N)N7)NC6=O)cc5)C(O)C4O)C(O)C(O)C3O)ccc2c1 (centres unmarked) [Example 245] ... 32
COc1ccc(COCC2OC(OC3C(CO)OC(Oc4ccc(CC5NC(=O)C(C(C)c6ccccc6)NC(=O)CNC(=O)C(CO)NC(=O)C(C(O)C6CNC(=N)N6C6OC(CO)C(O)C(O)C6O)NC(=O)C(C(O)C6CNC(=N)N6)NC5=O)cc4)C(O)C3O)C(O)C(O)C2O)cc1 (centres unmarked) [Example 232] ... 64

Please give MIC Escherichia coli (GC 4559), item by item, for the list that follows.
1. CC(c1ccccc1)C1NC(=O)CNC(=O)C(CO)NC(=O)C(C(O)C2CNC(=N)N2C2OC(CO)C(O)C(O)C2O)NC(=O)C(C(O)C2CNC(=N)N2)NC(=O)C(Cc2ccc(OC3OC(CO)C(OC4OC5COC6(OC5C(O)C4O)C4CCCC6CCC4)C(O)C3O)cc2)NC1=O (centres unmarked) [Example 212]
2. Cc1ccc(COCC2OC(OC3C(CO)OC(Oc4ccc(CC5NC(=O)C(C(C)c6ccccc6)NC(=O)CNC(=O)C(CO)NC(=O)C(C(O)C6CNC(=N)N6C6OC(CO)C(O)C(O)C6O)NC(=O)C(C(O)C6CNC(=N)N6)NC5=O)cc4)C(O)C3O)C(O)C(O)C2O)cc1 (centres unmarked) [Example 234]
3. N=C1NCC(C(O)C2NC(=O)C(Cc3ccc(OC4OC(CO)C(OC5OC6COC(c7ccccc7)OC6C(O)C5O)C(O)C4O)cc3)NC(=O)C(CC3CCCCC3)NC(=O)CNC(=O)C(CO)NC(=O)C(C(O)C3CNC(=N)N3C3OC(CO)C(O)C(O)C3O)NC2=O)N1 (centres unmarked) [Example 199]
4. N=C1NCC(C(O)C2NC(=O)C(Cc3ccc(OC4OC(CO)C(OC5OC6COC(Cc7ccccc7)OC6C(O)C5O)C(O)C4O)cc3)NC(=O)C(CC3CCCCC3)NC(=O)CNC(=O)C(CO)NC(=O)C(C(O)C3CNC(=N)N3C3OC(CO)C(O)C(O)C3O)NC2=O)N1 (centres unmarked) [Example 200]
5. N=C1NCC(C(O)C2NC(=O)C(Cc3ccc(OC4OC(CO)C(OC5OC6COC7(OC6C(O)C5O)C5CC6CC(C5)CC7C6)C(O)C4O)cc3)NC(=O)C(Cc3ccccc3)NC(=O)CNC(=O)C(CO)NC(=O)C(C(O)C3CNC(=N)N3C3OC(CO)C(O)C(O)C3O)NC2=O)N1 (centres unmarked) [Example 220]

## Output
1: 32; 2: 64; 3: 32; 4: 32; 5: 16

###

- Tested on: Enterococcus sp.
- Assay summary: In vitro antibacterial evaluation: minimum inhibitory concentration (MIC), broth dilution method
- Assay type: cell-based
- Condition notes: broth dilution, 5×10^5 CFU/mL, 18 hours at 35° C.
For each of the compounds below, state its MIC Enterococccus faecium (GC 4557).

CC(c1ccccc1)C1NC(=O)CNC(=O)C(CO)NC(=O)C(C(O)C2CNC(=N)N2C2OC(CO)C(O)C(O)C2O)NC(=O)C(C(O)C2CNC(=N)N2)NC(=O)C(Cc2ccc(OC3OC(CO)C(OC4OC5COC(Cc6ccc(F)cc6)OC5C(O)C4O)C(O)C3O)cc2)NC1=O (stereo not shown) ... 2 µg/mL
CC(c1ccccc1)C1NC(=O)CNC(=O)C(CO)NC(=O)C(C(O)C2CNC(=N)N2C2OC(CO)C(O)C(O)C2O)NC(=O)C(C(O)C2CNC(=N)N2)NC(=O)C(Cc2ccc(OC3OC(CO)C(OC4OC5COC(CC67CC8CC(CC(C8)C6)C7)OC5C(O)C4O)C(O)C3O)cc2)NC1=O (stereo not shown) ... 2 µg/mL
CC(c1ccccc1)C1NC(=O)CNC(=O)C(CO)NC(=O)C(C(O)C2CNC(=N)N2C2OC(CO)C(O)C(O)C2O)NC(=O)C(C(O)C2CNC(=N)N2)NC(=O)C(Cc2ccc(OC3OC(CO)C(OC4OC5COC(Cc6ccc(Cl)cc6)OC5C(O)C4O)C(O)C3O)cc2)NC1=O (stereo not shown) ... 1 µg/mL

# input for lookup
## Input Lab request: please report MIC Enterococccus faecium (GC 4557) under test system Enterococcus sp. for CC(c1ccccc1)C1NC(=O)CNC(=O)C(CO)NC(=O)C(C(O)C2CNC(=N)N2C2OC(CO)C(O)C(O)C2O)NC(=O)C(C(O)C2CNC(=N)N2)NC(=O)C(Cc2ccc(OC3OC(CO)C(OC4OC5COC(CCc6ccccc6)OC5C(O)C4O)C(O)C3O)cc2)NC1=O (stereo not shown)
## Output 1 µg/mL

###

- Test system: Staphylococcus sp.
- Assay summary: In vitro antibacterial evaluation: minimum inhibitory concentration (MIC), broth dilution method
- Assay type: cell-based
- Condition notes: broth dilution, 18 hours at 35° C.
Reported property: MIC Staphylococcus aureus (GC 4541) (µg/mL)
Numbers only, in µg/mL.

Some solved cases for reference:
CCCCCCN=C1NCC(C(O)C2NC(=O)C(C(O)C3CNC(=N)N3)NC(=O)C(Cc3ccc(OC4OC(CO)C(OC5OC6COC7(OC6C(O)C5O)C5CC6CC(C5)CC7C6)C(O)C4O)cc3)NC(=O)C(C(C)c3ccccc3)NC(=O)CNC(=O)C(CO)NC2=O)N1C1OC(CO)C(O)C(O)C1O (stereo not drawn) ... 4
CC(c1ccccc1)C1NC(=O)CNC(=O)C(CO)NC(=O)C(C(O)C2CN(Cc3ccc(-c4ccccc4)cc3)C(=N)N2C2OC(CO)C(O)C(O)C2O)NC(=O)C(C(O)C2CNC(=NCc3ccc(-c4ccccc4)cc3)N2Cc2ccc(-c3ccccc3)cc2)NC(=O)C(Cc2ccc(OC3OC(CO)C(OC4OC(CO)C(O)C(O)C4O)C(O)C3O)cc2)NC1=O (stereo not drawn) ... 8

Please give MIC Staphylococcus aureus (GC 4541), item by item, for the list that follows.
1. CC(c1ccccc1)C1NC(=O)CNC(=O)C(CO)NC(=O)C(C(O)C2CN(Cc3ccccc3)C(=NCc3ccccc3)N2C2OC(CO)C(O)C(O)C2O)NC(=O)C(C(O)C2CN(Cc3ccccc3)C(=NCc3ccccc3)N2Cc2ccccc2)NC(=O)C(Cc2ccc(OC3OC(CO)C(OC4OC5COC6(OC5C(O)C4O)C4CC5CC(C4)CC6C5)C(O)C3O)cc2)NC1=O (stereo not drawn)
2. CC(c1ccccc1)C1NC(=O)CNC(=O)C(CO)NC(=O)C(C(O)C2CNC(=N)N2C2OC(CO)C(O)C(O)C2O)NC(=O)C(C(O)C2CNC(=N)N2)NC(=O)C(Cc2ccc(OC3OC(CO)C(OC4OC(COC(=O)C(c5ccccc5)c5ccccc5)C(O)C(O)C4O)C(O)C3O)cc2)NC1=O (stereo not drawn) [Example 96c]

## Output
1: 4; 2: 0.5

Source listed as patent US8247211B2.
